src = ChEMBL document CHEMBL3301472

Experiment: MMV: MTT Cytotoxicity Assay Day 7 pi of Assay #6 (compound washed out Day 1 pi), U87-CD4-CCR5 cells, % cell death @ 5mM compound
Type: toxicity, cell-based
Conditions: human, u87-cd4-ccr5, 5000 µM
Listed next: entries and their corresponding % Cell Death.
Respond numerically, and do not add a unit to the figure.

{"compound": "Clc1ccc2[nH]c3c(NCCCN4CCOCC4)ncnc3c2c1", "quantity-kind": "% Cell Death", "assay-value": 105}
{"compound": "CN1c2ccccc2N(C)C1c1ccc2c(c1)OCO2", "quantity-kind": "% Cell Death", "assay-value": 10}
{"compound": "Br.CCn1c2c(c(=N)c3c1CCC3)CCCC2", "quantity-kind": "% Cell Death", "assay-value": -8}
{"compound": "Cc1ccc(C2CC(C(F)(F)F)n3nc(C(=O)N4CCN(C(c5ccccc5)c5ccccc5)CC4)cc3N2)cc1 (stereo unspecified)", "quantity-kind": "% Cell Death", "assay-value": 77}
{"compound": "CC(C)(C)c1ccc(C(=O)Nc2nc3ccccc3s2)cc1", "quantity-kind": "% Cell Death", "assay-value": 20}

Req: Look up and report measured % Cell Death for this entry: Oc1ccc(Br)cc1CN1CCN(Cc2ccc(Cl)cc2)CC1
Resp: 12

Req: Look up and report measured % Cell Death for this entry: COc1ccc(NC(=O)C2c3ccccc3C(=O)N(CC(C)C)C2c2cccs2)cc1Cl (stereo unspecified)
Resp: 5

Req: Look up and report measured % Cell Death for this entry: CCOc1cc2c(cc1OCC)C(c1cc(Cl)ccc1O)NCC2 (stereo unspecified)
Resp: -26

Req: Look up and report measured % Cell Death for this entry: FC(F)(F)c1cccc(CNC2CCN(CCc3ccccc3)CC2)c1
Resp: 30

Req: Look up and report measured % Cell Death for this entry: COc1cc(C(=O)Nc2ccc(-c3nc4ccccc4[nH]3)cc2)cc(OC)c1OC
Resp: -4

Req: Look up and report measured % Cell Death for this entry: CCCCCCc1cc2cc(-c3nc4ccccc4[nH]3)c(=Nc3ccccc3C)oc2cc1O
Resp: 15

* * *

Assay: MMV: MTT Cytotoxicity Assay Day 7 pi of Assay #10 (NO washout), U87-CD4-CCR5 cells, % cell death @ 5mM compound
Format: toxicity, cell-based
Conditions: human, u87-cd4-ccr5, 5000 µM
Listed next: entries and their corresponding % Cell Death.
Respond numerically, and do not add a unit to the figure.

Before answering, review these 4 worked examples.
{"compound": "CCN(CC)CCNc1ncnc2c1[nH]c1ccc(Cl)cc12", "% Cell Death": 5}
{"compound": "Cc1ccc(C(=O)c2oc3ccc4c(C)cc(=O)oc4c3c2C)cc1", "% Cell Death": 83}
{"compound": "CCOc1cc2c(cc1OCC)C(c1cc(Cl)c(O)c(OCC)c1)NCC2 (stereo not given)", "% Cell Death": 21}
{"compound": "CN(C)CCCNc1c2ccccc2nc2ccccc12", "% Cell Death": 30}

Req: Look up and report measured % Cell Death for this entry: OC1=C2C(=Nc3ccccc3SC2c2ccc(Br)cc2)c2ccccc21 (stereo not given)
Resp: 30

Req: Look up and report measured % Cell Death for this entry: Cc1cc(Nc2ccc3ccccc3c2)n2ncnc2n1
Resp: -3

Req: Look up and report measured % Cell Death for this entry: Oc1ccc2ccccc2c1CNc1nc2ccccc2[nH]1
Resp: 36

Req: Look up and report measured % Cell Death for this entry: Oc1ccc(Cl)cc1CNc1nc2ccccc2[nH]1
Resp: -8

Req: Look up and report measured % Cell Death for this entry: CCOc1ccc(Nc2ccnc3cc(Cl)ccc23)cc1
Resp: 72

Req: Look up and report measured % Cell Death for this entry: CCN1CCN(c2c(C(=O)c3ccccc3)cnc3cc(OC)c(OC)cc23)CC1
Resp: 47

Req: Look up and report measured % Cell Death for this entry: Cc1ccc(-c2cc(C(=O)Nc3ccc(S(=O)(=O)N4CCCCC4)cc3)[nH]n2)c(O)c1
Resp: 10

Req: Look up and report measured % Cell Death for this entry: Cc1cc(NC(=O)c2ccc(-c3ccccc3)cc2)no1
Resp: 32

Req: Look up and report measured % Cell Death for this entry: Cc1ccc(NC(=O)Nc2cccc(Cl)c2)cc1F
Resp: 8

Req: Look up and report measured % Cell Death for this entry: CCOc1cc(Cl)c(C(C)NC(=O)c2cccc(OC)c2)cc1OCC (stereo not given)
Resp: 24

Req: Look up and report measured % Cell Death for this entry: O=C(Nc1ccccc1O)c1ccc(-c2ccc(Cl)cc2Cl)o1
Resp: 11

Req: Look up and report measured % Cell Death for this entry: CCOC(=O)c1cnc2c(C)cc(C)cc2c1Nc1ccc(OC)c(OC)c1
Resp: 8

Req: Look up and report measured % Cell Death for this entry: Cc1cc(C)c2c(c1)OCN(Cc1ccccc1Cl)C2
Resp: -6

Req: Look up and report measured % Cell Death for this entry: CCCCCCC(O)(c1ccc(F)cc1)C(CN1CCOCC1)c1ccccc1.Cl (stereo not given)
Resp: -2

Req: Look up and report measured % Cell Death for this entry: COc1ccc(C(C)=O)cc1N1C(=O)C2C(C1=O)C1(c3ccccc3)C(=O)C2(c2ccccc2)C(c2ccc(C)cc2)=C1c1ccc(C)cc1 (stereo not given)
Resp: 16

Req: Look up and report measured % Cell Death for this entry: O=[N+]([O-])c1ccc(C=NNc2nc3ccccc3[nH]2)cc1
Resp: 38

Req: Look up and report measured % Cell Death for this entry: COc1ccc(CCn2c(=N)c(C(=O)NCc3cccnc3)cc3c(=O)n4cccc(C)c4nc32)cc1
Resp: 4

Req: Look up and report measured % Cell Death for this entry: C=CC12CCN(CC1)C(C(O)c1ccnc3ccc(OC)cc13)C2.Cl (stereo not given)
Resp: 27

Req: Look up and report measured % Cell Death for this entry: CCCCCCOC(=O)C1=C(C)NC(=O)NC1c1ccccc1F (stereo not given)
Resp: 40

Req: Look up and report measured % Cell Death for this entry: CCOC(=O)c1cnc2ccc(OC)cc2c1NCc1ccccc1
Resp: -9

Req: Look up and report measured % Cell Death for this entry: Oc1c(C(Nc2ccccn2)c2cccc(Oc3ccccc3)c2)ccc2cccnc12 (stereo not given)
Resp: 139

Req: Look up and report measured % Cell Death for this entry: CCOC(=O)c1c[nH]c2c(CC)cccc2c1=O
Resp: -1

* * *

Experiment: MMV: MTT Cytotoxicity Assay Day 7 pi of Assay #6 (compound washed out Day 1 pi), U87-CD4-CCR5 cells, % cell death @ 5mM compound
Type: toxicity, cell-based
Details: human, u87-cd4-ccr5, 5000 µM
Listed next: entries and their corresponding % Cell Death.
Respond numerically, and do not add a unit to the figure.

Before answering, review these 3 worked examples.
{"compound": "CC1CCN(Cc2ccc(NC(=O)c3cc4ccc5cccnc5c4[nH]3)cc2)CC1", "% Cell Death": 17}
{"compound": "O=C(NCCCN1CCC(N2CCCCC2)CC1)C1=Cc2cc(Br)ccc2OC1", "% Cell Death": 31}
{"compound": "CC(C)(C)c1ccc(C(=O)Nc2c3c(nn2-c2cccc(Cl)c2)CSC3)cc1", "% Cell Death": 2}

Req: Look up and report measured % Cell Death for this entry: O=C(Nc1ccsc1C(=O)NC1CCCCC1)c1ccc(F)cc1
Resp: -4

Req: Look up and report measured % Cell Death for this entry: c1ccc2c(NCCc3c[nH]c4ccccc34)c3ccccc3nc2c1
Resp: 29

Req: Look up and report measured % Cell Death for this entry: CCCN(CCC)CCCNC(=O)c1cc2c(-c3ccc(OC)c(OC)c3)nn(C)c2s1
Resp: 59

Req: Look up and report measured % Cell Death for this entry: COc1ccc(C(=O)NC(c2ccccc2Cl)c2cc(Cl)c3cccnc3c2O)cc1 (stereo not given)
Resp: 23

* * *

Experiment: MMV: MTT Cytotoxicity Assay Day 7 pi of Assay #6 (compound washed out Day 1 pi), U87-CD4-CCR5 cells, % cell death @ 5mM compound
Assay type: toxicity, cell-based
Settings: human, u87-cd4-ccr5, 5000 µM
Lab note: anything with % Cell Death at or over 10 counts as YES; the rest go in NO.

{"molecule": "CCOc1cc2c(cc1OCC)C(c1cc(C)c(O)c(C)c1)NCC2.Cl (stereo unspecified)", "category-label": "YES"}
{"molecule": "COc1ccc(C)c2sc(N(Cc3cccnc3)C(=O)c3ccc(C#N)cc3)nc12", "category-label": "NO"}
{"molecule": "OC(CNC1CCCC1)Cn1c2ccccc2c2ccccc21 (stereo unspecified)", "category-label": "NO"}

Req: Would you say Cc1ccc(Cn2c(N3CCC(C(=O)NCc4cccs4)CC3)nc3ccccc32)cc1 shows % Cell Death at minimum 10?
Resp: YES

Req: Would you say CC(C)=CCN1CCC(C(=O)Nc2ccc(-c3nc4ccccc4[nH]3)cc2)CC1 shows % Cell Death at minimum 10?
Resp: NO

Req: Would you say COc1ccc(/C=C2/SC(=Nc3ccccc3)NC2=O)cc1 shows % Cell Death at minimum 10?
Resp: YES
